protocol text: ATG_PXRE_CIS: Attagene CIS-FACTORIAL HepG2 Assay for human Pregnane X Receptor Element (PXRE) (AID 2282957)
measurement conditions: HepG2 Attagene CIS-FACTORIAL PXRE reporter, mRNA; actives raise or lower the signal
Calls of active or inactive are those of the source. Rule for the calls: active = hit-call score of the fitted dose curve at least 0.9, where 1 is the maximum; inactive = score below 0.9.
I would appreciate it if you answered using one of these outcomes: active, inactive

molecule | class name
C=CCOc1c(Br)cc(Br)cc1Br | active
CCCCCCCCc1ccc(Nc2ccc(CCCCCCCC)cc2)cc1 | active
CCCCCCCCCCOC(C)=O | inactive
Nc1ccc(N=Nc2ccccc2)c(N)n1 | inactive
Cc1ccc2c(c1)C(=O)c1ccccc1C2=O | active
Cc1ccccc1C | active
O=C1c2ccccc2C(=O)C1c1nc2ccccc2c(Br)c1O | active
CCCCCCCCCCCCCCCC(=O)OCC | active

Next up:
## Task # fetch the recorded call for "CCCCCCCCCCCCCCCCCC#N" here
## Result inactive
